Recorded values, source ChEMBL document CHEMBL3885861.

# Lookup of reported Cl keyed by entry
Organism: Rattus norvegicus
assay explanation: Open TG-GATES - Regimen: Single
Assay type: toxicity, organism-based, Sprague-Dawley
Set-up: regimen Single, gender Male, age 6 weeks
test conditions: in vivo, po, 300 mg/kg, 3 h, tissue Plasma, route gavage, dose level Middle
experimental endpoint: Cl

# compound, experimental endpoint, observed value
data = [
    ("COc1ccc2[nH]c([S+]([O-])Cc3ncc(C)c(OC)c3C)nc2c1 (centres undefined)", "Cl", "100.6 meq/L"),
    ("COC1=CC(=O)C[C@@H](C)[C@]12Oc1c(Cl)c(OC)cc(OC)c1C2=O", "Cl", "104.2 meq/L"),
    ("CCOC(=O)CCC(=O)O[C@H]1[C@H](O[C@@H]2[C@@H](C)[C@H](O[C@H]3C[C@@](C)(OC)[C@@H](O)[C@H](C)O3)[C@@H](C)C(=O)O[C@H](CC)[C@@](C)(O)[C@H](O)[C@@H](C)C(=O)[C@H](C)C[C@@]2(C)O)O[C@H](C)C[C@@H]1N(C)C [ERYTHROMYCIN ETHYLSUCCINATE]", "Cl", "103.8 meq/L"),
    ("NC(N)=Nc1nc(CSCCC(N)=NS(N)(=O)=O)cs1", "Cl", "104.2 meq/L"),
]

---

Species: Rattus norvegicus
assay explanation: Open TG-GATES - Regimen: Daily Repeat
Type: toxicity, organism-based, Sprague-Dawley
Design: regimen Daily Repeat, gender Male, age 6 weeks
test conditions: in vivo, po, 100 mg/kg, 72 h, tissue Blood, route gavage, dose level Low, time 3 day
# Eos per entry
experimental endpoint: Eos (%)

# compound, measurement unit, observed value
measured = [
    ("CCOC(=O)CCC(=O)O[C@H]1[C@H](O[C@@H]2[C@@H](C)[C@H](O[C@H]3C[C@@](C)(OC)[C@@H](O)[C@H](C)O3)[C@@H](C)C(=O)O[C@H](CC)[C@@](C)(O)[C@H](O)[C@@H](C)C(=O)[C@H](C)C[C@@]2(C)O)O[C@H](C)C[C@@H]1N(C)C [ERYTHROMYCIN ETHYLSUCCINATE]", "%", 1),
    ("COc1ccc2[nH]c([S+]([O-])Cc3ncc(C)c(OC)c3C)nc2c1 (stereo not given)", "%", 1),
    ("NC(N)=Nc1nc(CSCCC(N)=NS(N)(=O)=O)cs1", "%", 1),
    ("CCOc1ccc(NC(=O)CC(C)O)cc1 (stereo not given)", "%", 0.8),
    ("COC1=CC(=O)C[C@@H](C)[C@]12Oc1c(Cl)c(OC)cc(OC)c1C2=O", "%", 1),
]

---

Each item that follows carries a reported RALB.
Species on record: Rattus norvegicus
assay explanation: Open TG-GATES - Regimen: Daily Repeat
Format: toxicity, organism-based, Sprague-Dawley
Parameters: regimen Daily Repeat, gender Male, age 6 weeks
test conditions: in vivo, po, 0 mg/kg, […], tissue Plasma, route gavage, dose level Control, time 14 day

# molecule, measurement unit, RALB
records = [
    ("CN(C)CCCN1c2ccccc2CCc2ccccc21", "g/dL", 2.6),
    ("NC(N)=Nc1nc(CSCCC(N)=NS(N)(=O)=O)cs1", "g/dL", 3.4),
    ("COC1=CC(=O)C[C@@H](C)[C@]12Oc1c(Cl)c(OC)cc(OC)c1C2=O", "g/dL", 3.5),
    ("CN(C)CCN(Cc1cccs1)c1ccccn1", "g/dL", 3),
    ("NNC(=O)c1ccncc1", "g/dL", 3.6),
    ("CCOC(=O)CCC(=O)O[C@H]1[C@H](O[C@@H]2[C@@H](C)[C@H](O[C@H]3C[C@@](C)(OC)[C@@H](O)[C@H](C)O3)[C@@H](C)C(=O)O[C@H](CC)[C@@](C)(O)[C@H](O)[C@@H](C)C(=O)[C@H](C)C[C@@]2(C)O)O[C@H](C)C[C@@H]1N(C)C [ERYTHROMYCIN ETHYLSUCCINATE]", "g/dL", 2.9),
    ("O=C(CCCN1CCC(O)(c2ccc(Cl)cc2)CC1)c1ccc(F)cc1", "g/dL", 3.9),
    ("CC1=C(/C=C/C(C)=C/C=C/C(C)=C/CO)C(C)(C)CCC1", "g/dL", 3.2),
]
